Test system: T. gondii β-gal tachyzoites
Assay: IC50 determination with T. gondii β-gal tachyzoites grown in HFF monolayers
Type: cell-based, Toxoplasma gondii
Conditions: Toxoplasma gondii; short-term growth assays; added with infection or 3 h after; read-out: IC50 T. gondii, range depending on the time point of initiation of treatment
pIC50: −log10 of the molar value.
OBSERVATION TYPE: pIC50

In [3]: df
Out[3]:
                            compound_smiles    data_value
0  CCCCCCCCCCOc1cc2c(O)c(C(=O)OCC)cnc2cc1OCC  8.33 to 8.96

// lookup pIC50 | system=T. gondii β-gal tachyzoites | key= "CCCCCCCCCCOc1cc2c(OC(=O)N3CCN(S(C)(=O)=O)C3=O)c(C(=O)OCC)cnc2cc1OCC"
9.15 to 10.15
